composite z-score values for the compounds below.
assay-method-text: probe aShh binding to arrayed compounds – biochemical, biotinylated probe, 635/667 nm fluorescence, primary screen (AID 1114);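 note: probe is biotin-labelled aShh protein from a stem cell growth factor screen; measures binding of labelled protein to compounds printed on the slide; score merges feature fluorescence at 667 nm with signal-to-noise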
protocol-conditions: small-molecule microarray, higher = more signal
observable: composite z-score

1. COCCCNC(=O)[C@@]1(Cc2ccccc2)COC(c2ccc(OCCCO)cc2)=N1 ... 0.289
2. C=CCOc1ccc([C@@H]2CC=C(C(=O)OCC)[C@H](c3cccc(Br)c3)N2S(=O)(=O)c2ccc(C)cc2)cc1 ... -0.107
3. O=C1O[C@H](c2ccccc2)[C@H](c2ccccc2)N2[C@H]1[C@@H](C(=O)N1CCN(c3ncccn3)CC1)[C@]1(C(=O)Nc3ccc(C#CCCO)cc31)[C@H]2c1ccccc1OCCO ... 0.126
4. C=CC[C@]1(C(=O)N(C)C)N=C(c2ccc(OCCCO)cc2)O[C@H]1c1ccccc1 ... 0.33
5. COCCOC(=O)N1C(=O)[C@@]2(c3cc(C#CC4(O)CCCCCC4)ccc31)[C@H](C(=O)N1CCN(c3ncccn3)CC1)[C@H]1C(=O)O[C@H](c3ccccc3)[C@H](c3ccccc3)N1[C@@H]2c1ccc(O)cc1 ... 0.128
6. CN(C)C(=O)[C@@]1(Cc2ccccc2N=[N+]=[N-])N=C(c2ccc(OCCCO)cc2)O[C@H]1c1ccccc1N=[N+]=[N-] ... 0.108
7. CCOC(=O)C[C@H]1[C@H](OC(=O)c2cc3ccccc3oc2=O)[C@@H](NC(=O)c2ccc3ccccc3n2)c2cc(OCCCO)ccc2N1C(=O)c1ccc2ccccc2n1 ... 0.01
8. C[C@@H]1ON(c2ccccc2)[C@H](c2ccccc2)[C@H]1C(=O)N1C(=O)OC[C@H]1Cc1ccccc1 ... -0.304

----------
assay-method-text: small molecules captured by biotinylated probe aFSTL3 – biochemical, small-molecule microarray, fluorescence 635/667, stem cell growth factor project, primary screen (AID 1064);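 note: measures binding of the biotinylated anti-FSTL3 antibody to printed compounds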
protocol-conditions: higher = more signal
Kind request: treat 0.2 as inclusive, so composite z-score at 0.2 or higher is Yes, anything lower is No.

1. [N-]=[N+]=NCc1ccccc1C[C@]1(C(=O)NCCN2CCOCC2)N=C(c2ccc(OCCCO)cc2)O[C@H]1c1ccccc1 ... No
2. COc1ccc(C(=O)Nc2ccc(CN3C(=O)[C@@]4(O[C@@H](CC(=O)N5Cc6ccccc6C[C@H]5CO)[C@H]([Si](C)(C)c5ccc(OC)cc5)[C@H]4C)c4ccccc43)cc2)cc1 ... No
3. COCCCNC(=O)[C@@H]1c2ccccc2C(=O)N(Cc2cc(F)cc(C(F)(F)F)c2)[C@H]1c1ccc(CO)cc1 ... Yes
4. COC(=O)[C@@]1(Cc2ccccc2)[C@H]2c3cc(C(=O)N4CCCC4)n(Cc4ccc(OC(F)(F)F)cc4)c3C[C@H]2CN1C(=O)c1ccccc1 ... Yes
5. CCC[C@@H]1C[C@@]1(CCC)[C@@H](NC(=O)c1cccs1)c1ccc(Cl)cc1 ... Yes
6. NCCCCCCNC(=O)[C@H]1C[C@H]2C(=O)N3CCC[C@H]3C(=O)N2[C@H]1c1ccc(O)cc1 ... No
7. NC(=O)[C@@H]1[C@H]2C(=O)O[C@H](c3ccccc3)[C@H](c3ccccc3)N2[C@H](c2ccccc2OCCO)[C@@]12C(=O)Nc1ccc(C#CCCO)cc12 ... No
8. C[N+](C)(C)CCCC[C@@H]1NC(=O)[C@H]2C[C@@H](C(=O)NCCCCCCN)[C@@H](c3cccc(OCCO)c3)N2C1=O ... Yes
9. CCOC(=O)C1=CC[C@@H](c2ccc(N(CC)CC)cc2)N(S(=O)(=O)c2ccc(C)cc2)[C@H]1c1ccc([N+](=O)[O-])cc1 ... Yes
10. CCCNC(=O)[C@@]1(Sc2ccc(C)cc2)CC(=O)N(Cc2ccccc2)[C@@H]1c1ccc(CO)cc1I ... Yes
11. CC(C)(C)OC(=O)CC[C@@]1(C(=O)N2CCCCC2)N=C(c2ccc(OCCCO)cc2)O[C@@H]1c1ccccc1CN=[N+]=[N-] ... No
12. COc1ccc([Si](C)(C)[C@@H]2[C@@H](CCO)O[C@]3(C(=O)N(Cc4ccccc4)c4ccc(N5C(=O)COc6ccccc65)cc43)[C@H]2C)cc1 ... No
13. O=C(N1CCOCC1)[C@@]1(CCS(=O)(=O)c2ccccc2)COC(c2ccc(OCCCO)cc2)=N1 ... Yes
14. CN(C)CCCCCCNC(=O)[C@@H]1C[C@@H]2C(=O)NCC(=O)N2[C@@H]1c1ccc(O)cc1 ... No
15. C=CCOC(=O)[C@H]1[C@@H]2C(=O)O[C@@H](c3ccccc3)[C@@H](c3ccccc3)N2[C@@H](c2ccc(OCCOC(=O)[C@H]3C[C@H]4C(=O)N[C@@H](CCCCN(C)C)C(=O)N4[C@H]3c3ccc(O)cc3)cc2)[C@]12C(=O)Nc1ccccc12 ... Yes
16. [N-]=[N+]=NCc1ccccc1[C@H]1OC(c2ccc(OCCCO)cc2)=N[C@@]1(Cc1ccccc1N=[N+]=[N-])C(=O)N1CCCCC1 ... Yes
17. CCOC(=O)C[C@H]1[C@H](OC(=O)Cc2ccc3c(c2)OCO3)[C@@H](NC(=O)c2ccccc2)c2cc(OCCCO)ccc2N1C(=O)c1ccccc1 ... No
18. OCCCC1=CC(c2cccs2)N(Cc2cccc(OC(F)(F)F)c2)CC1 (stereo not drawn) ... No

----------
assay-method-text: blood-stage malaria parasite viability loss – strain 3D7, DAPI fluorescence, 100 nL, primary screen (AID 1184);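 note: parasites grown inside human red blood cells in medium with human serum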
protocol-conditions: P. falciparum 3D7 growth, 3 d, higher = more signal
z-score values for the compounds below.
observable: z-score

1) O=C1O[C@@H](c2ccccc2)[C@@H](c2ccccc2)N2[C@@H](c3ccc(O)cc3)[C@]3(C(=O)Nc4ccc(C#CC5=CCCCC5)cc43)[C@@H](C(=O)Nc3nc4ccccc4s3)[C@H]12 ... -0.775
2) C=C(C(=O)CC[C@H](OC(=O)c1cccnc1)c1ccc(OCCO)cc1)C(C)C ... -2.02
3) Cc1ccc(S[C@]2(C(=O)NCC(C)C)CC(=O)N(C3CCCCC3)[C@@H]2c2ccc(CO)cc2I)cc1 ... -1.82
4) CN(C)CCCNC(=O)[C@@]1(Cc2ccccc2I)c2ccccc2C(=O)N(Cc2ccccc2Cl)[C@H]1c1ccc(CO)cc1 ... -2.21
5) CC(=O)NCCCC[C@@H]1NC(=O)[C@H]2C[C@@H](C(=O)NCCCCCN)[C@@H](c3cccc(OCCO)c3)N2C1=O ... 0.184
6) C=CC[C@]1(C(=O)N(C)C)N=C(c2ccc(OCCCO)cc2)O[C@H]1c1ccccc1 ... -2.08
7) CCOC(=O)C[C@H]1[C@H](OC(=O)Cc2ccc3c(c2)OCO3)[C@@H](NC(=O)c2ccccc2)c2cc(OCCCO)ccc2N1C(=O)c1ccccc1 ... -0.385
8) COCCCNC(=O)[C@@]1(Cc2ccccc2)COC(c2ccc(OCCCO)cc2)=N1 ... -0.723
9) C=C[C@H](C)[C@H](OC(=O)Nc1ccc(SC)cc1)c1ccc(O)c2ccccc12 ... -0.243
10) COC(=O)[C@@]1(Cc2ccc(F)cc2)[C@H]2c3cc(C(=O)N4CCCC4)n(Cc4ccccc4)c3C[C@H]2CN1C(=O)c1ccccc1 ... -0.443
11) NC(=O)NCC#Cc1ccc2c(c1)[C@]1(C(=O)N2)[C@H](c2ccc(O)cc2)N2[C@H](c3ccccc3)[C@H](c3ccccc3)OC(=O)[C@H]2[C@@H]1C(N)=O ... 0.637
12) COc1cc(NN2C(C(O)c3ccc(I)cc3)C=CC3C(=O)N(C)C(=O)C32)cc(OC)c1OC (configuration not stated) ... -0.336

----------
assay-method-text: hepatitis C replication reporter changes, two-sided – Huh7 cells, luciferase reporter, HCV replication inhibitor project, primary screen (AID 1109);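 note: huh7 hepatoma cells harbouring a luciferase neomycin HCV replicon reporter; luciferase luminescence as measure of HCV replicon replication; test concentration not given here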
protocol-conditions: Huh7 HCV replicon luciferase reporter, 48 h; higher = more signal
observable: z-score

1) CC(C)[Si](C#C[Si](C(C)C)(C(C)C)C(C)C)(O[C@H](C)c1cn(Cc2cccc(Cl)c2)nn1)C(C)C ... -0.266
2) C=CCC(OC(C)=O)[C@@H]1[C@@H](N(Cc2cccc3ccccc23)C(=O)Cc2ccc(F)cc2)c2cc(OCCCO)ccc2N1C(=O)Cc1ccc(OC)cc1 (some centres undefined) ... -0.81
3) COc1ccc([Si](C)(C)[C@@H]2[C@@H](CC(=O)N3Cc4ccccc4C[C@H]3CO)O[C@]3(C(=O)N(Cc4cccc(N5CCCCC5=O)c4)c4ccccc43)[C@H]2C)cc1 ... -3.47
4) O=C1O[C@H](c2ccccc2)[C@H](c2ccccc2)N2[C@H]1[C@@H](C(=O)NC[C@H](O)c1ccccc1)[C@]1(C(=O)Nc3ccccc31)[C@H]2c1ccccc1OCCO ... -3.34

----------
assay-method-text: plasmodial surface anion channel blockers, osmotic lysis – cell-based, P. falciparum Indochina, OD700, 1 h, primary screen (AID 1154)
protocol-conditions: P. falciparum Indochina infected RBC osmotic lysis, higher = more signal, called active from +8 up or from −8 down
observable: z-score

1. CC(C)CN1C(=O)[C@@]2(Cc3ccccc31)c1ccccc1C(=O)N(Cc1ccccc1)[C@H]2c1ccc(CO)cc1 ... 0.0889
2. C[N+](C)(C)CCCC[C@@H]1NC(=O)[C@H]2C[C@@H](C(=O)NCCCCCCN)[C@@H](c3cccc(OCCO)c3)N2C1=O ... 1.19
3. CCCCC(CC)C(O)C1C=CC2C(=O)NC(=O)C2N1Nc1ccccn1 (stereo not drawn) ... 1.68
4. CC(C)(C)N1CC=CC23O[C@@H]4C=CCCOC(=O)C4[C@H]2C(=O)N(CCCO)[C@@H]3C1=O (stereo partly drawn) ... 0.595
5. CC1CC/C=C\[C@H]2OC34C=CCN(c5ccc(Cl)cc5)C(=O)[C@H]3N(C(CO)C(C)C)C(=O)[C@]4(C)C2C(=O)O1 (stereo partly drawn) ... 2.3
6. NC(=O)NCC#Cc1ccc2c(c1)[C@]1(C(=O)N2)[C@H](c2ccc(O)cc2)N2[C@H](c3ccccc3)[C@H](c3ccccc3)OC(=O)[C@H]2[C@@H]1C(=O)NC[C@H](O)c1ccccc1 ... -0.0501
7. COCCOC(=O)N1C(=O)[C@@]2(c3ccccc31)[C@H](c1ccc(OCCO)cc1)N1[C@H](c3ccccc3)[C@H](c3ccccc3)OC(=O)[C@H]1[C@@H]2C(=O)NC[C@H](O)c1ccccc1 ... 7.9
8. C[N+](C)(C)CCCC[C@@H]1NC(=O)[C@@H]2C[C@H](C(=O)NCCCCCNC(=O)CS)[C@H](c3cccc(OCCO)c3)N2C1=O ... 3.64

Just for reference, PubChem BioAssay is where these values come from.
